# tested.system: T1, HLA-A*02:01 (human)
# T1 construct: MHC class I monomer of the UV-ligand exchange assay; also called peptide-receptive MHC molecules; MHC class I
# assay.overview: UV peptide-exchange ELISA
endpoint.label: peptide exchange yield

> print(dat)
         binder  endpoint.result
 1    ALVSTIIMV        10 to 20%
 2    LLPTAPTTV        50 to 75%
 3    NLLAHIWAL        50 to 75%
 4   LLKDGPEIGL        20 to 50%
 5    TLDDDLDTV        20 to 50%
 6    YLLPLLQRL            ≥ 75%
 7    ALLNLLESA        50 to 75%
 8    ATPMPTPSV        20 to 50%
 9  TLLADDLEIKL        50 to 75%
10    GLDDLLLFL        50 to 75%
11   FLLNLQNCHL            ≥ 75%
12   ALDEPPYLTV        50 to 75%
13  HQIEAVDGEEL        20 to 50%
14   LLYNSTDPTL        50 to 75%
15    LLFATQITL        20 to 50%
16    VLIKWFPEV            ≥ 75%

Cited source: patent US20170165337A1
